# study system: ICRAC current (CRAC ion channels), RBL-2H3 cells (Rattus norvegicus, UniProt Q5M848)
# Construct: endogenous in cells; host or cells: RBL-2H3 (rat basophilic leukemia cells)
# Sequence (Q5M848 whole entry): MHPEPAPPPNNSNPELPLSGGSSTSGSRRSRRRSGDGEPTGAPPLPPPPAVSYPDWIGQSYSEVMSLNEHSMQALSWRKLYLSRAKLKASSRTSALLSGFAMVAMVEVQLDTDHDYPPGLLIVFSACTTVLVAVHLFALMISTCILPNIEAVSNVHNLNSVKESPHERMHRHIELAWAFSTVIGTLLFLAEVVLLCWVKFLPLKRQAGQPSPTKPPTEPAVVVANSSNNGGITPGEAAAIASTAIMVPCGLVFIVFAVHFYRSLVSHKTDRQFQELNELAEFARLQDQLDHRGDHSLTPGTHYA
# method notes: Automated patch clamp (Qpatch) inhibition of ICRAC current in RBL-2H3 cells
# Format: cell-based
# measurement context: compound at 100 nM, method calculates % ICRAC inhibition
reported metric: inhibition at 0.1 µM (%)
Give bare numbers, in %.

> print(dat)
                                   molecule       reported.metric  experimental.result
1  Cc1ccc(-c2nc(-c3ccc(C(=O)Nc4c(F)cccc4F)cc3)c(C)s2)cn1 [Compound 1]  inhibition at 0.1 µM                   80
2  CCc1sc(-c2cc(C)on2)nc1-c1ccc(C(=O)Nc2cncnc2C)cc1 [Compound 6]  inhibition at 0.1 µM                   93
3  Cc1cc(C)c(NC(=O)c2ccc(-c3cc(-c4nnn(C)n4)ccc3Cl)cc2)cn1 [Compound 2]  inhibition at 0.1 µM                   61

Now for another entry.
// output inhibition at 0.1 µM; input Cc1ccncc1C(=O)Nc1ccc(-c2cc(-c3nnn(C)n3)ccc2Cl)cn1 [Compound 4] ; system ICRAC current (CRAC ion channels), RBL-2H3 cells (Rattus norvegicus, UniProt Q5M848)
36

Provenance of the data: patent US20140242099A1
